test.summary: NCI Yeast Anticancer Drug Screen. Data for the sgs1 mgt1 strain (AID 161);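 also: 0% = growth of cultures given vehicle only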
stated.conditions: S. cerevisiae sgs1 mgt1 strain, at 50.0 µM, active compounds read high
About 79,000 compounds went through this panel and 15% of them were active in at least one assay; those are over-represented in the sample as a whole. Activity calls are given as the source filed them. Rule as the data show it: active = growth inhibition above about 70%; inactive = the rest.
quantity.name: growth inhibition

The recorded growth inhibition for O=C1CN(c2cccc(Cl)c2)C(=O)CN1/N=C/c1ccc[nH]1 is 98.7% (active)

What the record says about O=C1NC(Cc2ccccc2)C(=O)O1 (stereo unspecified) : growth inhibition is 11.1% (inactive)

growth inhibition in this record for CCNC(=O)NNc1ncnc2c1c(-c1ccc(Cl)cc1)cn2-c1ccc(C)cc1 : 98.3% (active)

So, CCOC(=O)N/N=C/c1ccc(N(C)CCC#N)cc1 ? Its growth inhibition was 55.2% (inactive)

Consider O=C(CNc1cccc([N+](=O)[O-])c1)Nn1c(-c2ccccc2)nc2ccccc2c1=O . Its measured growth inhibition is 62.7% (inactive)

Looking up C1=NC2c3ccccc3Cc3cccc1c32 (stereo unspecified) , I found its growth inhibition recorded as 95.3% (active)

====

test.summary: NCI Yeast Anticancer Drug Screen. Data for the sgs1 mgt1 strain (AID 161);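 also: 0% = growth of cultures given vehicle only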
stated.conditions: S. cerevisiae sgs1 mgt1 strain, at 5.0 µM (retest, dose inferred, filed as 0.5), active compounds read high
Protocol: Growth inhibition of yeast strains with defined genetic alterations is measured as a screen for potential anti-cancer activity. Selected strains with alterations in DNA damage repair or cell cycle control were exposed to compounds and growth inhibition was measured relative to vehicle treated controls. The strain used in this assay is sgs1 mgt1
This is part of a sample that, as a whole, favours compounds with a hit. Of some 79,000 tested, about 15% had one in any assay. The source made the active and inactive calls. Rule as the data show it: active = growth inhibition above about 70%; inactive = the rest.
quantity.name: growth inhibition

// growth inhibition value for O=C1CN(CCN2CCOCC2)CC(=O)N2CCCCN12 : 3% (inactive)

Form: compound = O=S(=O)(Sc1ccccc1)C(c1ccccc1)c1ccccc1 ; growth inhibition = 2% (inactive)

Noted for Oc1ccc(N=Nc2ccc(Cl)cc2)cc1O : its growth inhibition reads 8% (inactive)

For record CCN(CC)CCNc1c2ccccc2nc2cccc([N+](=O)[O-])c12 the listed growth inhibition is 94% (active)

Summary for this compound, O=S(=O)(O)CNc1cc(Cl)cc(Cl)c1 : growth inhibition is 1% (inactive)

Noted for COc1c(O)cc(C=O)cc1[N+](=O)[O-] : its growth inhibition reads -1% (inactive)

The reported value for O=C1C(=O)C(CCCO)(CCCO)CCCCCCCCC1(CCCO)CCCO in terms of growth inhibition is 5% (inactive)

So, CN(C)Cc1cc(C(C)(C)C)cc(C2CCCCC2)c1O ? Its growth inhibition was -1% (inactive)

The compound identified as O=C1CCCC/C1=C/c1ccc(Cl)cc1 registered its growth inhibition at -64% (inactive)

growth inhibition measured on N#CC(CC(Br)CBr)(c1ccccc1)c1ccccc1 (stereo not given) = 11% (inactive)

According to the records, this compound CS(=O)c1cc(=O)c2ccccc2s1 (stereo not given) displays growth inhibition of 19% (inactive)

// field: growth inhibition; key: CC(=O)OCCc1ccc(CCc2ccccc2)cc1 ; value = 6% (inactive)

// growth inhibition lookup, compound = CSc1nc(=Nc2ccccc2)sn1-c1ccccc1 , result: 27% (inactive)

The recorded growth inhibition for entry CC(C)NCC=C=Nc1ccccc1 equals -8% (inactive)

Record c1ccc2[nH]c(CN(CCN(Cc3nc4ccccc4[nH]3)Cc3nc4ccccc4[nH]3)Cc3nc4ccccc4[nH]3)nc2c1 , field growth inhibition: 99% (active)

According to the records, this compound CC(C)=NNc1ncnc2nc[nH]c12 displays growth inhibition of -4% (inactive)

get_value(item= COC(=O)C1=CCC[C@H]2C1(C)CCC(C)C21CC(c2ccoc2)OC1=O (stereo not given in full) , readout=growth inhibition) returns 10% (inactive)

Record COC(=O)c1nnn(-c2cc(Cl)ccc2Cl)c1C(=O)c1ccc(Cl)c(Cl)c1 . Reported growth inhibition: 14% (inactive)

Record summary for O=C(/C(=C\I)c1ccccc1)c1ccccc1 : reported growth inhibition = -8% (inactive)

// growth inhibition lookup, compound = C=CCc1cc(C(=O)OCC)cc(OC)c1O , result: 34% (inactive)

Entry COCC(O)Cn1cc([N+](=O)[O-])nc1C (stereo not given) — recorded growth inhibition = -1% (inactive)

Per the record, COc1ccc(C(=O)c2cc(Cl)ccc2N)cc1 has growth inhibition of 8% (inactive)

Kindly note the recorded growth inhibition for OC(COc1ccc(Cl)cc1)COc1ccc(Cl)cc1 , which is -3% (inactive)

Memo: COc1ccc2c(c1)CCC/C2=N\NS(=O)(=O)c1c(C)cc(C)cc1C , reported growth inhibition: 16% (inactive)

Just so you know, measured growth inhibition for O=C(N/C(=C\c1ccc(/C=C(\NC(=O)c2ccccc2)c2nc3ccccc3s2)cc1)c1nc2ccccc2s1)c1ccccc1 came out at 42% (inactive)
